- System: U2OS
- Experiment notes: Multiplex assay against U2OS
- Assay type: toxicity, cell-based
- Particulars: human, 24 h, 1 µM, compound concentration 1 uM, replicate 1
Observable: Population Membrane Permeable-Phenotype (%)
Don't forget the unit after the number, please.

>  <Compound>
CN1CCN(C(=O)C(C)(C)c2ccc(C(=O)Nc3cn4cc(-c5cc(C(C)(C)C)cc(C(C)(C)C)c5)ccc4n3)cc2)CC1

>  <Tested on>
U2OS

>  <Endpoint value>
8%

$$$$
>  <Compound>
CCc1cccc(CC)c1NC(=O)c1nn(C)c2c1CCc1cnc(Nc3ccc(C(=O)NC4CCN(C)CC4)cc3OC(F)(F)F)nc1-2

>  <Tested on>
U2OS

>  <Endpoint value>
3%

$$$$
>  <Compound>
CCN1CCN(Cc2ccc(Nc3ncc(F)c(-c4cc(F)c5nc(C)n(C(C)C)c5c4)n3)nc2)CC1.CS(=O)(=O)O

>  <Tested on>
U2OS

>  <Endpoint value>
10%

$$$$
>  <Compound>
CCNc1cc(N[C@H]2CC[C@H](O)CC2)nc(Nc2ccc3c(ccn3Cc3ccccc3)c2)n1

>  <Tested on>
U2OS

>  <Endpoint value>
22%

$$$$
>  <Compound>
COc1cc(N2CCN(C)CC2)ccc1Nc1ncc2c(n1)N(C)c1ccccc1C(=O)N2C

>  <Tested on>
U2OS

>  <Endpoint value>
3%

$$$$

Batch: Population Membrane Permeable-Phenotype (%) for all items listed.
1. CN1CCC(=C2c3ccccc3CC(=O)c3sccc32)CC1.O=C(O)/C=C/C(=O)O [KETOTIFEN FUMARATE]
2. CNC(=O)c1ccc(Nc2nc(OC3CCCC3)c3c(-c4ccc5nc(C)oc5c4)c[nH]c3n2)c(OC)c1
3. COc1cc2ncnc(Nc3ccc(F)c(Cl)c3)c2cc1NC(=O)/C=C/CN1CCCCC1 [DACOMITINIB ANHYDROUS]

["8%", "92%", "65%"]

====

- Tested on: U2OS
- Experiment notes: Multiplex assay against U2OS
- Format: toxicity, cell-based
- Particulars: human, 12 h, 1 µM, compound concentration 1 uM, replicate 2
Observable: Population Hoechst High Intensity Objects (%)
Don't forget the unit after the number, please.

Batch: Population Hoechst High Intensity Objects (%) for all items listed.
1. O=C(Nc1ccc(-c2ccnc(Nc3ccc(N4CCOCC4)cc3)n2)cc1)[C@@H]1CCCN1
2. C=C1/C(=C\C=C2/CCC[C@]3(C)[C@@H]([C@H](C)/C=C/[C@H](C)C(C)C)CC[C@@H]23)C[C@@H](O)C[C@@H]1O [DOXERCALCIFEROL]
3. CCOC(=O)c1c(C)[nH]c2ccc3c(c12)CN1CCc2cc(OC)ccc2C1O3 (configuration not stated)
4. NC(=O)c1cccc(-c2cc(Nc3ccc(OC(F)(F)F)cc3)ncn2)c1

7%
1%
9%
16%

====

- Tested on: Fibroblast
- Experiment notes: Multiplex assay against human fibroblast
- Type: toxicity, cell-based
- Particulars: 12 h, 1 µM, compound concentration 1 uM, replicate 1
Observable: Population Normal (%)
Give bare numbers, in %.

Worked set:
>  <Molecular string>
COc1cc(N2CCN(C)CC2)ccc1Nc1ncc2c(n1)N(C)c1ccccc1C(=O)N2C

>  <Observable>
Population Normal (%)

>  <Unit string>
%

>  <Endpoint value>
88

$$$$
>  <Molecular string>
Cc1cn(-c2cc(NC(=O)c3ccc(C)c(Nc4nccc(-c5cccnc5)n4)c3)cc(C(F)(F)F)c2)cn1

>  <Observable>
Population Normal (%)

>  <Unit string>
%

>  <Endpoint value>
91

$$$$
>  <Molecular string>
CCNc1cc(N[C@H]2CC[C@H](O)CC2)nc(Nc2ccc3c(ccn3Cc3ccccc3)c2)n1

>  <Observable>
Population Normal (%)

>  <Unit string>
%

>  <Endpoint value>
79

$$$$

Now turn to the next molecule.
Can you look up the measured Population Normal (%) of `Cc1ccc2nc(NCCN)c3ncc(C)n3c2c1.O=C(O)C(F)(F)F.O=C(O)C(F)(F)F` for me?
88
